Entries and their Kd
Target: T1, EsCas13d, nuclease-dead (Eubacterium siraeum, UniProt B0MS50, R295A;H300A;R849A;H854A)
T1 sequence: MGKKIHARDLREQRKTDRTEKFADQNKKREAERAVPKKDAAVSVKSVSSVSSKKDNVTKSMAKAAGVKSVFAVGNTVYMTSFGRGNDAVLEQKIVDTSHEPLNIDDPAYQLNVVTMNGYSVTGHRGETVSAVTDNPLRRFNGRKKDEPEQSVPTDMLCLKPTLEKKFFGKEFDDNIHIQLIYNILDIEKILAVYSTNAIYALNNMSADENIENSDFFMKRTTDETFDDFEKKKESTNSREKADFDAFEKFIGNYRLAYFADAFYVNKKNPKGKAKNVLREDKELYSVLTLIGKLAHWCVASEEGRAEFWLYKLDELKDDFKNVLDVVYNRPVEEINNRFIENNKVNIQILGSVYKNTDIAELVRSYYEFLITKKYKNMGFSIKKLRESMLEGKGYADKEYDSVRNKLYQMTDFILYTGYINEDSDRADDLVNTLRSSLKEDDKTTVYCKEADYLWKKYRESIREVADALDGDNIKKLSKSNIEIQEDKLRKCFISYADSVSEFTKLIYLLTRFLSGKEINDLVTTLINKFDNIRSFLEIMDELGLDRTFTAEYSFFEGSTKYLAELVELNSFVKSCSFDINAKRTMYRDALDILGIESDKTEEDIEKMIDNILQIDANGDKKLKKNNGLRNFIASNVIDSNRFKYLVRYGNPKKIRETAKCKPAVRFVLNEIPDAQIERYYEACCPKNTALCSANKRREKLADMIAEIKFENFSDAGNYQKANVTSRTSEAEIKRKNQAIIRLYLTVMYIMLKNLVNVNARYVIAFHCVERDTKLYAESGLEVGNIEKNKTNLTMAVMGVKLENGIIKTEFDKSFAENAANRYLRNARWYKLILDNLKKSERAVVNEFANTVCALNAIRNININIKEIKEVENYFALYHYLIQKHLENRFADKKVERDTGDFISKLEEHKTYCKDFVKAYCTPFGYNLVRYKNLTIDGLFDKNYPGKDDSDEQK
Experiment: crRNA (strand 1, pre-loaded); Mg2+; 40 mM Tris-HCl pH 7.5, 150 mM NaCl, 6 mM MgCl2, 1 mM DTT, 0.1% Tween-20, 0.2 mg/ml BSA; 25 C; 10 min per concentration, then washed
Conditions: tags: His6-TwinStrep-SUMO cleaved; N-terminal SNAP kept (SNAP-Surface 488); label: 3' end held by stalled T7 RNA polymerase

The examples below pair each entry with its known result.
* target 1 insU 3' of 13,insA 3' of 5 (mixed) RNA 1: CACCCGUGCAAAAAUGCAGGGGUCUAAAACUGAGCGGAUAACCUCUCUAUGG RNA 2: GGGAAUGGAUCCACAUCUACGAAUUCGUACCAUAGAGAGUGUUAUCCGACUCACCGAGAUCGGAAGAGCACACGU | 15.7 nM
* target 1 MT 5'PFS GUG 3'PFS GAA (mixed) RNA 1: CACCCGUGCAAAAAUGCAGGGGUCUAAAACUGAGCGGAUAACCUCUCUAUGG RNA 2: GGGAAUGGAUCCACAUCUACGAAUUCGUGCCAUAGAGAGGUUAUCCGCUCAGAAAGAUCGGAAGAGCACACGU | 12.9 nM
* target 1 MT 5'PFS UCC 3'PFS AAA (mixed) RNA 1: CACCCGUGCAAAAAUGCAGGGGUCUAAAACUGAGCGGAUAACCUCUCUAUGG RNA 2: GGGAAUGGAUCCACAUCUACGAAUUCUCCCCAUAGAGAGGUUAUCCGCUCAAAAAGAUCGGAAGAGCACACGU | ~23.5 nM

Attention now shifts to the item below.
Q. Quick one: Kd for target 1 A9C,U11G (mixed) RNA 1: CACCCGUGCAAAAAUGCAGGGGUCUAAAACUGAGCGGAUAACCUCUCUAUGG RNA 2: GGGAAUGGAUCCACAUCUACGAAUUCGUACCAUAGAGAGGGUCUCCGCUCACCGAGAUCGGAAGAGCACACGU ?
A. 44 nM
